- System: Fer (mouse);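 also: 11-residue human phosphosite peptides and single-mutation variants displayed on the E. coli surface, counted by deep sequencing, each peptide's frequency after selection divided by its frequency in the unselected input library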;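 also: frequency after pTyr selection over input frequency; kinase dosed for 20-30% of maximal phosphorylation in three min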
- method summary: phosphorylation enrichment, bacterial display (enrichment ratio); higher = better substrate or ligand; peptides without Tyr show the background

{"record sequence": "TLSGIYQYNIA [FOXL2_Y81_I84N]", "phosphorylation enrichment": 13.1}
{"record sequence": "RLNAIYQNNLT [GSR_Y158]", "phosphorylation enrichment": 1.06}
{"record sequence": "AKKKMYSHKTK [AGXT_Y231_R233H]", "phosphorylation enrichment": 1.12}
{"record sequence": "HYEFKYVINAI [MAOA_Y268_C266F]", "phosphorylation enrichment": 0.74}
{"record sequence": "KVVNEYVTKGQ [MYH7_Y410_G407V]", "phosphorylation enrichment": 0.393}
{"record sequence": "CPSLLYSPVSS [CAMKK2_Y128_P127L]", "phosphorylation enrichment": 12.2}
{"record sequence": "MSSLFYANTLF [HOXB7_Y6_YF]", "phosphorylation enrichment": 3.42}
{"record sequence": "KCCCIYEKPRA [PPP1R11_Y64]", "phosphorylation enrichment": 8.2}
{"record sequence": "AAPAAHDAADT [GAMT_Y27_Y27H]", "phosphorylation enrichment": 0.418}
{"record sequence": "EVGHVYLFLQP [ITGA2B_Y360_R358H]", "phosphorylation enrichment": 0.618}
{"record sequence": "DAICFYRMENA [NPHS2_Y195_YF]", "phosphorylation enrichment": 0.592}
{"record sequence": "QNTGDYFDLFG [PTPN11_Y62_YF]", "phosphorylation enrichment": 0.753}
{"record sequence": "LLIVEYAKYGS [RET_Y806]", "phosphorylation enrichment": 0.868}
{"record sequence": "PDMHSYVVRFN [GRIN2D_Y732_M733V_YF]", "phosphorylation enrichment": 0.411}
{"record sequence": "EIASHYRHLLR [ZBTB46_Y14_T11A]", "phosphorylation enrichment": 0.516}
{"record sequence": "RTCSSYAIEKI [PARP15_Y520]", "phosphorylation enrichment": 0.371}
{"record sequence": "KAESWYQTKYE [KRT75_Y342_E337K]", "phosphorylation enrichment": 0.57}
{"record sequence": "SWDKRYCEAGC [ITGA2B_Y197_F202C]", "phosphorylation enrichment": 0.383}
{"record sequence": "LLAGLYRGQAL [FGFR4_Y390]", "phosphorylation enrichment": 0.683}
{"record sequence": "LQLLGYRPVFS [CHST6_Y358_YF]", "phosphorylation enrichment": 0.57}
{"record sequence": "QMRLKYSQSDL [SMC1A_Y714]", "phosphorylation enrichment": 0.365}
{"record sequence": "SKKSTYRALLD [GANC_Y43_Q44R]", "phosphorylation enrichment": 0.358}
{"record sequence": "ADRNHYRRYPR [YBX1_Y145]", "phosphorylation enrichment": 0.46}
{"record sequence": "KRRGPYEMSPS [PLPP7_Y172_T174M]", "phosphorylation enrichment": 0.345}
{"record sequence": "VSLLPYFPAIM [IPO4_Y518_A513V]", "phosphorylation enrichment": 0.508}
{"record sequence": "YRRITYHNWRH [PDE6B_Y556]", "phosphorylation enrichment": 0.452}
{"record sequence": "ILNANCMAKRL [GLDC_Y839_Y839C]", "phosphorylation enrichment": 0.342}
{"record sequence": "SVVVPYEPLEV [TP53_Y220_P223L]", "phosphorylation enrichment": 0.934}
{"record sequence": "EVRTQYEEIAQ [KRT76_Y361_A359T]", "phosphorylation enrichment": 0.588}
{"record sequence": "SNKLHYQLEQE [PDPR_Y110_Y109H]", "phosphorylation enrichment": 0.498}
{"record sequence": "ALAQKYHGGGG [HBB_Y146_H144Q]", "phosphorylation enrichment": 0.296}
{"record sequence": "SVTCTGSPALN [TP53_Y126_Y126G]", "phosphorylation enrichment": 0.423}
{"record sequence": "GLRQGYFVEAQ [APCS_Y142]", "phosphorylation enrichment": 0.42}
{"record sequence": "HDRGNYVQLNM [RECQL4_Y353_R355Q]", "phosphorylation enrichment": 0.674}
{"record sequence": "NKEPRYQEEPP [TJP2_Y479_D482E]", "phosphorylation enrichment": 0.43}
{"record sequence": "LGGSPYPRVPV [FGFR1_Y701_G703R]", "phosphorylation enrichment": 0.444}
{"record sequence": "FSNKLYFQLEQ [PDPR_Y109_YF]", "phosphorylation enrichment": 0.661}
{"record sequence": "RSHLSYDVTPE [IQGAP3_Y1098_P1097S]", "phosphorylation enrichment": 0.453}
{"record sequence": "IIGNGYYFRVF [MYBPC3_Y1135]", "phosphorylation enrichment": 0.413}
{"record sequence": "KPLMPCMRYSR [SMARCE1_Y73_Y73C]", "phosphorylation enrichment": 0.452}
{"record sequence": "HNLFSYPTKFE [MYO3A_Y1396_H1400Y_YF]", "phosphorylation enrichment": 0.562}
